- MEASURED_ON: human LXRβ (AA 153-461) LBD (Homo sapiens (Human))
- MEASUREMENT_DESCRIPTION: Gal4 LXRβ cotransfection assay (LXRβ Gal fusion assay)
- CONDITIONS: HEK 293 cells transiently transfected, Gal4-responsive luciferase reporter, compounds 0.01-10 μM
MEASURE: EC50

Q: Report EC50 for CC(C)Cn1nc(C(C)(C)O)cc1-c1ccc(-c2ccc(CO)c(S(C)(=O)=O)c2)cc1 [Compound 10] please.
Result: 1 to 10 µM

====

- MEASURED_ON: human LXRβ (AA 153-461) LBD (Homo sapiens (Human), UniProt P55055)
- Sequence (P55055 153-460 limits assumed): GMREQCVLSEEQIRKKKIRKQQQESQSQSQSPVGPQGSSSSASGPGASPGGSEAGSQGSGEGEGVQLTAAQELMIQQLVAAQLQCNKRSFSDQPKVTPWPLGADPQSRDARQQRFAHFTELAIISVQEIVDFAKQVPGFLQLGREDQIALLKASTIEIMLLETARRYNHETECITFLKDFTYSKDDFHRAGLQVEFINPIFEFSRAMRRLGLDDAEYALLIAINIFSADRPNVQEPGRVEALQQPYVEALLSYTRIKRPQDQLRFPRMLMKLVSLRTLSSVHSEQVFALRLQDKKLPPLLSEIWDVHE
- MEASUREMENT_DESCRIPTION: Gal4 LXRβ cotransfection assay (LXRβ Gal fusion assay)
- CONDITIONS: HEK 293 cells transiently transfected, Gal4-responsive luciferase reporter, compounds 0.01-10 μM
MEASURE: EC50

These solved cases illustrate the format of a correct answer.
| COMPOUND | EC50 |
| --- | --- |
| CC(C)Cn1nc(C(=O)NCC(F)(F)F)cc1-c1ccc(-c2cccc(S(C)(=O)=O)c2)cc1 | < 1000 nM |
| CCC(C)n1nc(C(F)(F)F)cc1-c1ccc(-c2cccc(S(C)(=O)=O)c2)cc1 (stereo not drawn) | > 10000 nM |
| CS(=O)(=O)c1cccc(-c2ccc(-c3cc(C(F)(F)F)nn3C3CCCCC3)cc2)c1 | > 10000 nM |
| CC(C)Cn1nc(C(C)(C)O)cc1-c1ccc(-c2cccc(S(C)(=O)=O)c2)cc1 | 1000 to 10000 nM |
| CC(C)Cc1nc(C(C)(C)O)cn1-c1ccc(-c2cccc(S(C)(=O)=O)c2)cc1 | 1000 to 10000 nM |
| CS(=O)(=O)c1cccc(-c2ccc(-c3cc(C(F)(F)F)nn3CC3CC3)cc2)c1 | < 1000 nM |

Q: Requested read-out: EC50. Entry: CC(C)Cn1nc(C(F)(F)F)cc1-c1ccc(-c2ccc(CO)c(S(C)(=O)=O)c2)cc1
Result: < 1000 nM

Q: Form field: reported EC50 of CC(C)Cn1nc(C(=O)NCC(F)(F)F)cc1-c1ccc(-c2ccc(CO)c(S(C)(=O)=O)c2)cc1
Result: < 1000 nM

Q: What value of EC50 has been reported for the following compound? C=C(C)c1cc(-c2ccc(-c3cccc(S(C)(=O)=O)c3)cc2)n(CC(C)C)n1
Result: 1000 to 10000 nM

Q: # input compound: CS(=O)(=O)c1cccc(-c2ccc(-c3cc(C(F)(F)F)nn3CC3CCCCC3)cc2)c1 ; wanted: its EC50
Result: < 1000 nM

Q: Please look up its EC50: CC(C)Cn1nc(C(C)C)cc1-c1ccc(-c2cccc(S(C)(=O)=O)c2)cc1
Result: 1000 to 10000 nM

Q: Given the entry CC(C)Cn1nc(C(F)(F)F)cc1-c1ccc(-c2cccc(S(C)(=O)=O)c2)cc1 , report its measured EC50.
Result: < 1000 nM
